Test system: NCI-H522 lung
TEST DESCRIPTION: NCI-60 one-dose screen, 48 h
CONDITION INFO: 10 µM unless noted
The panel holds about 83,000 compounds, 20% with a hit somewhere; the sample as a whole holds those more often. The source made the active and inactive calls. The calls were made as follows: active = growth percent below 10; inactive = the rest.
# valid calls are y for active, n for inactive; nothing else

Some solved cases for reference:
[[record]]
molecule = "O=C(O)c1ccccc1C(=O)OC1CCCC2CCCC21 (centres undefined)"
group_label = "n"

[[record]]
molecule = "NC(=O)N/N=C/c1ccc(Br)o1"
group_label = "n"


Ask: Please indicate how the test categorized CCCCCCCCCCCCCCCCN=C(CC(=O)O)C(=O)O .
Result: n

Ask: Please indicate how the test categorized COc1cc(/C=C/C(=O)c2ccc(F)cc2)ccc1OCCCCCOc1cc2c(cc1OC)C(=O)N1CCCC1C=N2 (centres undefined) .
Result: y
